Tested on: COLO 205 colon
Experiment: NCI-60 one-dose screen, 48 h (100 = growth as untreated, 0 = no growth, -100 = all killed)
Details: 10 µM unless noted
About 83,000 compounds went through this panel and 20% of them were active in at least one assay; those are over-represented in the sample as a whole.
Provide the recorded growth for the entries that follow.
Unit % implied. Number only.

What does the data say about its growth? Entry: COc1ccc(/C(=C\c2cc(OC)c(OC)c(OC)c2)C(=O)N2CCN(c3ccccc3)CC2)cc1O 111

Next up: O=C(N=Nc1c(Cl)c(O)c2ccccc2c1O)C(=O)Nc1cccc(C(F)(F)F)c1 47.3

Next up: COC(=O)c1ccc(NC(N)=NCCC(C)(C)c2ccc(C(F)(F)F)cc2)nc1 -71.2

Next up: CN1CCN(Cc2ccc(NC(=O)c3cncc(C#Cc4cnc5cccnn45)c3)cc2C(F)(F)F)CC1 -48.1

Next up: O=C1C2=C(C(=O)c3c(O)ccc(O)c31)N(c1ccc(N3CCOCC3)nc1)Cc1ccccc1O2 -67.5

Next up: COc1ccc(C2=CC(c3ccc(OC)cc3Br)N3C=CSC3=N2)cc1 (stereo not drawn) 80.3

Next up: CC(=O)Nc1ccc(Cl)cc1Cl 130

Next up: COc1cc(NCCCCC(C)N)c2nccc(C)c2c1 (stereo not drawn) 37

Next up: COc1cc(C2CC(c3cccc(Nc4ccnc5cc(Cl)ccc45)c3)=NN2c2ccc(Cl)cc2)cc(OC)c1OC (stereo not drawn) 80.9

Next up: C#CC[C@@H]1C[C@]2(C)[C@H]3CC[C@@H]4[C@H]5C(C(=C)C)CC[C@]5(C(=O)NCCCCN)CC[C@@]4(C)[C@]3(C)CC[C@H]2C(C)(C)[C@H]1OC(C)=O (stereo partly drawn) -71.6

Next up: COc1ccc([C@@H]2[C@@H](Cl)C(=O)N2c2cc(OC)c(OC)c(OC)c2)cc1C -57

Next up: COc1ccc(C2=Nn3c(nnc3-c3ccc(Cl)cc3N)SC2)cc1 108

Next up: O=C1C(Cl)=C(N/N=c2/[nH][nH]/c(=N/NC3=C(Cl)C(=O)c4ccccc4C3=O)c3ccccc23)C(=O)c2ccccc21 52.5

Next up: Cc1ccc2cc3c(NC(=O)c4cccnc4)nn(C)c3nc2c1 85.5

Next up: COc1cc(C2CC(c3cccc(Nc4ccnc5cc(Cl)ccc45)c3)=NN2c2ccccc2)cc(OC)c1OC (stereo not drawn) 92.2

Next up: Cc1cc(C)c([O-])c(CN(C)CCN(C)Cc2cc(C)cc(C)c2[O-])c1.O=C([O-])c1cccc(C(=O)[O-])n1.[Ti+4] 2.03

Next up: NC(=Nc1ccccc1)SCCCSC(N)=Nc1ccccc1 78.7

Next up: C#CC[C@@H]1C[C@]2(C)[C@H]3CC=C4[C@H]5[C@@H](C)[C@H](C)CC[C@]5(C(=O)NCCCCN)CC[C@@]4(C)[C@]3(C)CC[C@H]2C(C)(C)[C@H]1OC(C)=O 6.68

----------
System: SK-MEL-2 melanoma
Assay: NCI-60 one-dose screen, 48 h (100 = growth as untreated, 0 = no growth, -100 = all killed)
Settings: 10 µM unless noted
The panel holds about 83,000 compounds, 20% with a hit somewhere; the sample as a whole holds those more often.
Experimental readout: growth (%)
Unit % implied. Number only.

What does the data say about its growth? Entry: O=C(Nc1ccc2ncnc(Nc3ccc(F)c(Cl)c3)c2c1)c1cccs1 90.7

Next up: CCN(CC)CCCC(C)N/C(c1cccc(OC)c1)=c1\c(=O)[nH]n(-c2c3ccccc3nc3ccccc23)c(=O)\c1=C(/NC(C)CCCN(CC)CC)c1cccc(OC)c1 (centres undefined) -75.2

Next up: CCN(CC)Cc1cc(Nc2nc(NC3CCC(N(C)C)CC3)c3ccccc3n2)ccc1OC (centres undefined) 116

Next up: CN(C)c1ccc(Nc2c3ccccc3nc3ccccc23)cc1 40.1

Next up: CN1CCN(Cc2ccc(NC(=O)c3cnc(F)c(C#Cc4cnc(N)c5ncccc45)c3)cc2C(F)(F)F)CC1 -30.1

Next up: CC1=C(C(=O)Nc2ccc(F)cc2)C(c2ccc(Cl)cc2)C2=C(CC(C)(C)CC2=O)N1 (centres undefined) 97.5

Next up: CCN(CC)CCCC(C)Nc1cnc(C(=O)Nc2cc(C)cc3cccnc23)cn1 (centres undefined) 104

Next up: CC1(C)C2CCC(O)(C(=O)O)C1C2 (centres undefined) 106

Next up: c1ccc(C2=Nc3ccccc3SC2)cc1 105

Next up: COC(=O)CNS(=O)(=O)c1ccc2c(c1)Cc1cc(S(=O)(=O)NCC(=O)OC)ccc1-2 108

Next up: COc1ccc(CCN2COc3c([C@@H](C)CCC=C(C)C)ccc(C)c3C2)cc1OC 89.4

Next up: Clc1ccccc1Nc1nnc(-c2ccncc2)s1 107

Next up: Oc1c(C(c2ccc(F)cc2)N2CCCCC2)ccc2cncnc12 (centres undefined) -16.6

Next up: CCCCCCCCCCC(C(O)c1ccccc1)N1CCCCC1 (centres undefined) 53.8

Next up: C#CC[C@@H]1C[C@]2(C)[C@H]3CC[C@@H]4[C@H]5C(C(=C)C)CC[C@]5(C(=O)NCCCCCCCCN)CC[C@@]4(C)[C@]3(C)CC[C@H]2C(C)(C)[C@H]1OC(C)=O (some centres undefined) 112

Next up: CC(C)CC(NC(=O)C(CCCN=C(N)N)NC(=O)OCc1ccccc1)C(=O)NC(CNC(=O)/C=C/c1ccccc1)C(C)C (centres undefined) 113

Next up: COc1cccc2nc(Nc3cccc(NC(=O)c4ccc(N5CCN(C)CC5)c(C(F)(F)F)c4)c3)ccc12 77.4

Next up: COS(=O)(=O)CCN(CCOS(C)(=O)=O)S(C)(=O)=O 78.9

Next up: CC1CN(CCCOC(=O)Nc2ccc(Cl)cc2)CCN1C(C)(C)C (centres undefined) 112

From: PubChem BioAssay (NCI)
